Target: Dickkopf-related protein 1 (Homo sapiens)
Experiment: DKK1 binders on small-molecule microarrays, primary screen, biochemical, small-molecule microarray, 635 nm fluorescence scan (AID 1106);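 note: score merges emission near 667 nm with signal to noise over three replicate slides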
Conditions: DKK1 binding, higher = more signal
measure: composite z-score
// return a plain number; no unit text

molecule	composite z-score
COC(=O)[C@@]1(Cc2ccc(OC)cc2)[C@H]2c3cc(C(=O)N4CCCC4)n(Cc4ccc(S(C)(=O)=O)cc4)c3C[C@H]2CN1C(=O)c1ccccc1	-0.802

Request: Give the value of composite z-score reported for the following: NC(=O)N1C(=O)C2C(C1=O)C1C=C(CCCO)C2C(C2CC2)N1Cc1cccc(OC(F)(F)F)c1 (configuration not stated)
Result: -0.0361

Request: Give the value of composite z-score reported for the following: O=C1OCC=C[C@H]2OC34C=CCN(c5ccc6ccccc6c5)C(=O)[C@H]3N(CCCCCO)C(=O)[C@@H]4[C@@H]12 (some centres not stated)
Result: -1.41

Request: Give the value of composite z-score reported for the following: `COc1ccc([Si](C)(C)[C@@H]2[C@@H](CCn3cc([C@H](O)c4ccccc4)nn3)O[C@]3(C(=O)N(c4ccccc4)c4ccccc43)[C@H]2C)cc1`
Result: 0.181

Request: Give the value of composite z-score reported for the following: `COC(=O)[C@@]1(Cc2ccccc2)[C@H]2c3cc(C(=O)N4CCCC4)n(CCSCCO)c3C[C@H]2CN1C(=O)c1ccccc1`
Result: -0.78

Request: Give the value of composite z-score reported for the following: `C[C@]1(C(=O)O)c2ccccc2C(=O)N(Cc2ccc(OC(F)(F)F)cc2)[C@H]1c1ccc(CO)cc1`
Result: -0.656

Request: Give the value of composite z-score reported for the following: `C=C(CCCC)C(=O)CC[C@H](OC(C)=O)c1ccc(OCCO)cc1`
Result: -0.8

* * *

Test: P. aeruginosa biofilm formation inhibitors, primary screen, PAO1 strain, BacTiter-Glo luminescence, LB-PBS (AID 1144)
Conditions: 12 h, higher = more signal
Record YES whenever z-score is at 0.03 or higher; record NO when lower.

compound	category-label
C=CCC(OC(C)=O)[C@@H]1[C@@H](N(Cc2ccc(-c3cccc(C(F)(F)F)c3)o2)C(=O)c2cccc3ccccc23)c2cc(OCCCO)ccc2N1C(=O)Cc1ccc(OC)cc1 (some centres not stated)	YES

Request: Please tell me: is the compound `COc1ccc(C#Cc2ccc3c(c2)[C@]2(C(=O)N3)[C@H](c3ccc(OCCO)cc3)N3[C@H](c4ccccc4)[C@H](c4ccccc4)OC(=O)[C@H]3[C@@H]2C(=O)N2CCc3cc(OC)c(OC)cc3C2)cc1` at or over 0.03 in terms of z-score?
Result: NO

Request: Please tell me: is the compound COc1cc2c(cc1O)C(c1cccs1)N(Cc1sc3ccccc3c1Cl)CC2 (configuration not stated) at or over 0.03 in terms of z-score?
Result: YES

Request: Please tell me: is the compound Cc1ccc(C(C)CC(O)C2C=CC3C(=O)N(c4ccccc4)C(=O)C3N2Nc2ccc(C#N)cc2)o1 (configuration not stated) at or over 0.03 in terms of z-score?
Result: NO

Request: Please tell me: is the compound `C=C[C@@H](C)[C@H](O)c1ccc(OCCO)cc1` at or over 0.03 in terms of z-score?
Result: NO

Request: Please tell me: is the compound `CCOC(=O)C[C@H]1[C@H](OC(=O)c2ccccc2-c2ccccc2)[C@@H](NC(=O)c2ccccc2)c2cc(OCCCO)ccc2N1C(=O)c1ccccc1` at or over 0.03 in terms of z-score?
Result: YES
